- Tested on: 845751-090-R-J2-PDC tumor spheroid viability
- Test name: Anticancer human tumor 845751-090-R-J2-PDC patient-derived head and neck squamous carcinoma cell line growth inhibition [IpAb]
- Test context: second compound 0.1 µM; first compound 10 µM; hits give low values; spheroids with HUVEC and MSC
A collection of compounds and their measured viability, T/C

1) C=CC(=O)N1CCN(c2nc(=O)n(-c3c(C)ccnc3C(C)C)c3nc(-c4c(O)cccc4F)c(F)cc23)C(C)C1 (stereo unspecified) + CCN1CCN(Cc2ccc(Nc3ncc(F)c(-c4cc(F)c5nc(C)n(C(C)C)c5c4)n3)nc2)CC1	27.2%
2) C=CC(=O)N1CCN(c2nc(=O)n(-c3c(C)ccnc3C(C)C)c3nc(-c4c(O)cccc4F)c(F)cc23)C(C)C1 (stereo unspecified) + CC(C)NCC(C(=O)N1CCN(c2ncnc3c2C(C)CC3O)CC1)c1ccc(Cl)cc1	10.7%
3) Cn1ncc(Cl)c1-c1cc(C(=O)NC(CN)Cc2cccc(F)c2)sc1Cl (stereo unspecified) + CCN1CCN(Cc2ccc(Nc3ncc(F)c(-c4cc(F)c5nc(C)n(C(C)C)c5c4)n3)nc2)CC1	0.25%

// query Write viability, T/C of CC1(C)CCC(CN2CCN(c3ccc(C(=O)NS(=O)(=O)c4ccc(NCC5CCOCC5)c([N+](=O)[O-])c4)c(Oc4cnc5[nH]ccc5c4)c3)CC2)=C(c2ccc(Cl)cc2)C1 + CCN1CCN(Cc2ccc(Nc3ncc(F)c(-c4cc(F)c5nc(C)n(C(C)C)c5c4)n3)nc2)CC1 ; system used: 845751-090-R-J2-PDC tumor spheroid viability;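 also: spheroids exposed to compounds for 7 days before readout; CTG3D luminescence normalised so that 100% = DMSO vehicle control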
// result 22.7%

// query Report its viability, T/C with 845751-090-R-J2-PDC tumor spheroid viability as the test system: Cn1nccc1Nc1nccc(-c2ccn(C(CO)c3ccc(Cl)c(F)c3)c(=O)c2)n1 (stereo unspecified) + CCN1CCN(Cc2ccc(Nc3ncc(F)c(-c4cc(F)c5nc(C)n(C(C)C)c5c4)n3)nc2)CC1
// result 132%

// query Look up 845751-090-R-J2-PDC tumor spheroid viability data: viability, T/C of Cn1ncc(Cl)c1-c1cc(C(=O)NC(CN)Cc2cccc(F)c2)sc1Cl (stereo unspecified) + CC(C)NCC(C(=O)N1CCN(c2ncnc3c2C(C)CC3O)CC1)c1ccc(Cl)cc1 , then report it.
// result 0.32%

// query Please look at Cc1nc(NC(=O)N2CCCC2C(N)=O)sc1-c1ccnc(C(C)(C)C(F)(F)F)c1 (stereo unspecified) + CC(C)NCC(C(=O)N1CCN(c2ncnc3c2C(C)CC3O)CC1)c1ccc(Cl)cc1 and tell me its recorded viability, T/C on 845751-090-R-J2-PDC tumor spheroid viability.
// result 8.29%

// query // output viability, T/C; input CC1(C)CCC(CN2CCN(c3ccc(C(=O)NS(=O)(=O)c4ccc(NCC5CCOCC5)c([N+](=O)[O-])c4)c(Oc4cnc5[nH]ccc5c4)c3)CC2)=C(c2ccc(Cl)cc2)C1 + CC(C)NCC(C(=O)N1CCN(c2ncnc3c2C(C)CC3O)CC1)c1ccc(Cl)cc1 ; system 845751-090-R-J2-PDC tumor spheroid viability;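 also: spheroids exposed to compounds for 7 days before readout; CTG3D luminescence normalised so that 100% = DMSO vehicle control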
// result 20.9%

// query Give viability, T/C; test system 845751-090-R-J2-PDC tumor spheroid viability; compound C=CCn1c(=O)c2cnc(Nc3ccc(N4CCN(C)CC4)cc3)nc2n1-c1cccc(C(C)(C)O)n1 + CCN1CCN(Cc2ccc(Nc3ncc(F)c(-c4cc(F)c5nc(C)n(C(C)C)c5c4)n3)nc2)CC1;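 also: spheroids exposed to compounds for 7 days before readout; CTG3D luminescence normalised so that 100% = DMSO vehicle control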
// result 43.2%

// query Please respond with reported viability, T/C (system 845751-090-R-J2-PDC tumor spheroid viability) for CCCS(=O)(=O)Nc1ccc(F)c(C(=O)c2c[nH]c3ncc(-c4ccc(Cl)cc4)cc23)c1F + CC(C)NCC(C(=O)N1CCN(c2ncnc3c2C(C)CC3O)CC1)c1ccc(Cl)cc1 .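 Also: spheroids exposed to compounds for 7 days before readout; CTG3D luminescence normalised so that 100% = DMSO vehicle control.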
// result 53.4%

// query Send back 845751-090-R-J2-PDC tumor spheroid viability viability, T/C of CCCS(=O)(=O)Nc1ccc(F)c(C(=O)c2c[nH]c3ncc(-c4ccc(Cl)cc4)cc23)c1F + CCN1CCN(Cc2ccc(Nc3ncc(F)c(-c4cc(F)c5nc(C)n(C(C)C)c5c4)n3)nc2)CC1 only.
// result 29.5%
